Test system: Capan-1 (human-derived pancreatic cancer cell line, BRCA2 pathogenic mutation)
Assay Notes: Cell proliferation assay (CTG), in vitro cytotoxicity
Type: cell-based
Condition Context: Homo sapiens, Capan-1 cells, 72 hours
Measurement Label: IC50
# do not omit the unit; it follows the number

Task: Recorded IC50 of O=[N+]([O-])c1ccc(C(OP(=O)(N2CC2)N2CC2)C(F)(F)F)cc1Oc1ccc(-c2ccc(F)cc2)c(F)c1 (stereo not shown) , please.
Output: 403 nM

FYI, the data here is from patent US20250186468A1.
